- TARGET SYSTEM: human hNET (Homo sapiens, UniProt P23975)
- Construct: expressed in transfected cells; host or cells: MDCK-Net6 (MDCK cells, stably transfected)
- Sequence (P23975 whole entry): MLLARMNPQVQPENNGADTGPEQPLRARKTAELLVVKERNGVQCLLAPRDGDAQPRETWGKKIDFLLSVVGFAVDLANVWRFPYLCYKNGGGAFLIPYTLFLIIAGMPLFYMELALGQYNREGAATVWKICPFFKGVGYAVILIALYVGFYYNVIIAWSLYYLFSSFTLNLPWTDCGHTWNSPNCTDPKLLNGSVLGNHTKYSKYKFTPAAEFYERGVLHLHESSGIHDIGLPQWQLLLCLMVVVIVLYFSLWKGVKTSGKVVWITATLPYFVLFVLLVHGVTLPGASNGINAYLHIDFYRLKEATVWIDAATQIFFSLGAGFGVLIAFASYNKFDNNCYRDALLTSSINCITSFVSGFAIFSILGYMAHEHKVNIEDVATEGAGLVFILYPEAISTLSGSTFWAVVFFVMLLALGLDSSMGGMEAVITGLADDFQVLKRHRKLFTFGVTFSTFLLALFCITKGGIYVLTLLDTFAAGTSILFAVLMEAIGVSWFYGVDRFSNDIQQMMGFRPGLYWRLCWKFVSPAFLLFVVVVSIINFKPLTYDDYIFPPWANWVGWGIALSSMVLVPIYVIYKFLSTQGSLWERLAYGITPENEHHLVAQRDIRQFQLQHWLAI
- ASSAY OVERVIEW: Norepinephrine (NE) uptake assay in MDCK-Net6 cells
- Format: cell-based
- ASSAY CONTEXT: 1 μM test compound, [3H]NE uptake, read-out: % Inhibition @ 1 μM (hNET)
Counter-ions that a name gives are not always drawn.
MEASURED QUANTITY: inhibition at 1 µM (%)

Look over these answered cases.
{"COMPOUND": "CN1CCN(CC(c2cccc(-c3ccc(Cl)c(Cl)c3)c2)C2(O)CCCCC2)CC1 (centres unmarked) [Example 247, dihydrochloride]", "UNIT NAME": "%", "inhibition at 1 µM": 49}
{"COMPOUND": "N#Cc1cccc(C(CN2CCNCC2)C2(O)CCCCC2)c1 (centres unmarked) [Example 160, dihydrochloride]", "UNIT NAME": "%", "inhibition at 1 µM": 50}
{"COMPOUND": "OC1(C(CN2CCNCC2)c2ccc(OCc3ccc4ccccc4c3)cc2)CCCCC1 (centres unmarked)", "UNIT NAME": "%", "inhibition at 1 µM": 64}
{"COMPOUND": "OC1(C(CN2CCNCC2)c2ccc(-c3ccccc3Cl)cc2)CCCCC1 (centres unmarked) [Example 165, dihydrochloride]", "UNIT NAME": "%", "inhibition at 1 µM": 13}
{"COMPOUND": "CN1CCN(CC(c2ccc(Oc3cccc4ccccc34)cc2)C2(O)CCCCC2)CC1 (centres unmarked) [Example 399, dihydrochloride]", "UNIT NAME": "%", "inhibition at 1 µM": 17}

(I) C[C@H]1CN(C[C@H](c2cccc(OC(F)(F)F)c2)C2(O)CCCCC2)CCN1C [Example 349, dihydrochloride]
(II) OC1(C(CN2CCNCC2)c2ccc(OCCc3ccccc3)c(Cl)c2)CCCCC1 (centres unmarked) [Example 452, dihydrochloride]
(III) COc1cc(C(CN2CCN(C)CC2)C2(O)CCCCC2)ccc1OCc1ccc2ccccc2c1 (centres unmarked) [Example 445, dihydrochloride]
Task: Please produce an ascending ranking of these compounds based on inhibition at 1 µM. In plain terms: list the labels in the order you were asked to.
Result: III, II, I
(III: 22%, II: 35%, I: 82%)

(A) CC(CCN1CCN(C[C@H](c2cccc(OC(F)(F)F)c2)C2(O)CCCCC2)CC1)c1ccccc1 (some centres unmarked) [Example 347, dihydrochloride]
(B) COc1ccc(C(CN2CCNCC2)C2(O)CCCCC2)cc1-c1cccc(OC(F)(F)F)c1 (centres unmarked) [Example 251, dihydrochloride]
(C) CN1CCN(CC(c2ccc(OCc3ccccc3)cc2)C2(O)CCC2)CC1 (centres unmarked) [Example 71, dihydrochloride]
Task: Falling order of inhibition at 1 µM, please. In plain terms: list the labels in the order you were asked to.
Result: A, B, C

----------
- TARGET SYSTEM: human hNET (Homo sapiens, UniProt P23975)
- Construct: expressed in transfected cells; host or cells: MDCK-Net6 (MDCK cells, stably transfected)
- ASSAY OVERVIEW: Norepinephrine (NE) uptake assay in MDCK-Net6 cells
- Format: cell-based
- ASSAY CONTEXT: 1 μM test compound, [3H]NE uptake, read-out: % Inhibition @ 1 μM (hNET)
Where a name gives a salt, the structure may show the parent alone.
MEASURED QUANTITY: inhibition at 1 µM (%)

{"COMPOUND": "C#Cc1cccc(C(CN2CCNCC2)C2(O)CCCCC2)c1 (centres unmarked) [Example 298, dihydrochloride]", "inhibition at 1 µM / %": 91}
{"COMPOUND": "CN1CCN(CC(c2ccc(OCc3ccccc3)c(C#N)c2)C2(O)CCCCC2)CC1 (centres unmarked) [Example 267, dihydrochloride]", "inhibition at 1 µM / %": 89}
{"COMPOUND": "CN1CCN(CC(c2cccc(C#N)c2)C2(O)CCCCC2)CC1 (centres unmarked) [Example 161, dihydrochloride]", "inhibition at 1 µM / %": 70}
{"COMPOUND": "OC1(C(CN2CCNCC2)c2ccc(OCc3ccccc3)c(OC(F)(F)F)c2)CCCCC1 (centres unmarked) [Example 268, dihydrochloride]", "inhibition at 1 µM / %": 84}
{"COMPOUND": "C[C@@H]1CN(C[C@H](c2cccc(OC(F)(F)F)c2)C2(O)CCCCC2)CCN1 [Example 369, dihydrochloride]", "inhibition at 1 µM / %": 90}
{"COMPOUND": "CN1CCN(CC(c2ccc(OCCc3ccccc3)c(Cl)c2)C2(O)CCCCC2)CC1 (centres unmarked) [Example 453, dihydrochloride]", "inhibition at 1 µM / %": 82}
{"COMPOUND": "CN1CCN(CC(c2ccc(-c3cccc(C#N)c3)cc2)C2(O)CCCCC2)CC1 (centres unmarked) [Example 177, dihydrochloride]", "inhibition at 1 µM / %": 54}
{"COMPOUND": "OC1(C(CN2CCNCC2)c2cc(Br)c(OCc3ccccc3)c(Br)c2)CCCCC1 (centres unmarked) [Example 392, dihydrochloride]", "inhibition at 1 µM / %": 68}
